Test system: Staphylococcus aureus
TEST DETAILS: microbe, parasite or virus in culture
Format: cell-based
RUN PARAMETERS: read-out: MIC (MIC99)
MEASURED PARAMETER: MIC99 (µg/mL)
Your answer should be a plain number; it is taken to be in µg/mL.

The measured MIC99 associated with `NC[C@H]1O[C@H](O[C@H]2[C@H](O)[C@@H](O[C@H]3O[C@H](CO)[C@@H](O)[C@H](N)[C@H]3O)[C@H](N)C[C@@H]2N)[C@H](N)C[C@@H]1O` reads 0.27

* * *

Test system: Staphylococcus aureus
TEST DETAILS: microbe, parasite or virus in culture
Format: cell-based
RUN PARAMETERS: read-out: MIC (MIC99)
Hi! Just check whether MIC99 is below 0.8 µg/mL. Below gives Criterion met, equal or above gives Criterion not met.

• CO[C@H]1/C=C/O[C@@]2(C)Oc3c(C)c(O)c4c(O)c(c(/C=N/N5CCN(C)CC5)c(O)c4c3C2=O)NC(=O)/C(C)=C\C=C\[C@H](C)[C@H](O)[C@@H](C)[C@@H](O)[C@@H](C)[C@H](OC(C)=O)[C@@H]1C [Rifampicin] = Criterion met
• CN[C@H](CC(C)C)C(=O)N[C@H]1C(=O)N[C@@H](CC(N)=O)C(=O)N[C@H]2C(=O)N[C@H]3C(=O)N[C@H](C(=O)N[C@H](C(=O)O)c4cc(O)cc(O)c4-c4cc3ccc4O)[C@H](O)c3ccc(c(Cl)c3)Oc3cc2cc(c3O[C@@H]2O[C@H](CO)[C@@H](O)[C@H](O)[C@H]2O[C@H]2C[C@](C)(N)[C@H](O)[C@H](C)O2)Oc2ccc(cc2Cl)[C@H]1O [Vancomycin] = Criterion met
• CCn1cc(C(=O)O)c(=O)c2cc(F)c(N3CCNCC3)cc21 [Norfloxacin] = Criterion not met
• CC1(C)S[C@@H]2[C@H](NC(=O)Cc3ccccc3)C(=O)N2[C@H]1C(=O)O [Penicillin] = Criterion met

Lab note: confirm whether the reported MIC99 for this compound is below 0.8 µg/mL, equality not counting. compound: O=C(N[C@H](CO)[C@H](O)c1ccc([N+](=O)[O-])cc1)C(Cl)Cl [Chloramphenicol]
Criterion not met

* * *

System: Escherichia coli
TEST DETAILS: microbe, parasite or virus in culture
Assay type: cell-based
RUN PARAMETERS: read-out: MIC (MIC99)
MEASURED PARAMETER: MIC99 (µg/mL)
Lab book: enter the figure in µg/mL, no units written.

Recorded results for 4 molecules are shown here.
* CC1(C)S[C@@H]2[C@H](NC(=O)Cc3ccccc3)C(=O)N2[C@H]1C(=O)O | 3
* CO[C@H]1/C=C/O[C@@]2(C)Oc3c(C)c(O)c4c(O)c(c(/C=N/N5CCN(C)CC5)c(O)c4c3C2=O)NC(=O)/C(C)=C\C=C\[C@H](C)[C@H](O)[C@@H](C)[C@@H](O)[C@@H](C)[C@H](OC(C)=O)[C@@H]1C | 5
* NC[C@H]1O[C@H](O[C@H]2[C@H](O)[C@@H](O[C@H]3O[C@H](CO)[C@@H](O)[C@H](N)[C@H]3O)[C@H](N)C[C@@H]2N)[C@H](N)C[C@@H]1O | 1.2
* CCn1cc(C(=O)O)c(=O)c2cc(F)c(N3CCNCC3)cc21 | 0.045

Now look at this entry.
Value (MIC99, Escherichia coli) for record `O=C(N[C@H](CO)[C@H](O)c1ccc([N+](=O)[O-])cc1)C(Cl)Cl` = 1.9

Values from patent US20020004220A1
